// reported cytotoxicity at 10 µM per item
- Assay details: Toxicity liver stage against HepG2, at 10uM
- Format: cell-based
- Set-up: test concentration 10 uM, cell line HepG2-A16-CD81EGFP
- Study conditions: human, HepG2-A16-CD81EGFP cells; read-out: INHIBITION

{"Molecule": "Fc1cc(Oc2ccc(C(F)(F)F)cn2)cc(F)c1CN1CCCC1", "cytotoxicity at 10 µM [%]": 24}
{"Molecule": "CN(Cc1cn2ccccc2n1)C1CCCN(c2cccnn2)C1 (configuration not stated)", "cytotoxicity at 10 µM [%]": -9.78}
{"Molecule": "CCOC(=O)c1cnn(-c2cc(Oc3cccc(C)c3)ncn2)c1N", "cytotoxicity at 10 µM [%]": 16.9}
{"Molecule": "Cc1ccc(N2CCCC3(COCCN(c4ncccn4)C3)C2)nn1 (configuration not stated)", "cytotoxicity at 10 µM [%]": -131}
{"Molecule": "Cn1ncc2c(NC3CCC(N)CC3)nc(C(C)(C)C)nc21 (configuration not stated)", "cytotoxicity at 10 µM [%]": 8}
{"Molecule": "COC(=O)CN(C(=O)c1ccco1)c1cccc(F)c1", "cytotoxicity at 10 µM [%]": -4.81}
{"Molecule": "CC(C)C1CN(C(=O)c2ccccc2)CCS1 (configuration not stated)", "cytotoxicity at 10 µM [%]": 1.62}
{"Molecule": "CCC1CCCCN1C(=O)Cn1nc(-c2cc(C)oc2C)cc(N)c1=O (configuration not stated)", "cytotoxicity at 10 µM [%]": 2.44}
{"Molecule": "Cc1cnc(N2C(=O)CSC2c2cccs2)s1 (configuration not stated)", "cytotoxicity at 10 µM [%]": 0.847}
{"Molecule": "CCn1cc(CN2CCCN(C(=O)CCCn3cncn3)CC2)cn1", "cytotoxicity at 10 µM [%]": -12.5}
{"Molecule": "O=S1(=O)NC(=CSCc2ccccc2)Nc2ccccc21", "cytotoxicity at 10 µM [%]": 0.603}
{"Molecule": "COc1ccccc1N1CCC(CNCc2cccc(OC)c2OC)C1 (configuration not stated)", "cytotoxicity at 10 µM [%]": 0.445}
{"Molecule": "O=C(CC1CCCN1S(=O)(=O)N1CCCCC1)c1cccs1 (configuration not stated)", "cytotoxicity at 10 µM [%]": 6.31}
{"Molecule": "O=c1c2sccc2ncn1Cc1cc(C2CC2)[nH]n1", "cytotoxicity at 10 µM [%]": 0.463}
{"Molecule": "CC(C)CNC(=O)Nc1cccc(OCC#N)c1", "cytotoxicity at 10 µM [%]": -0.353}
{"Molecule": "Cc1noc2ncc(S(=O)(=O)Nc3cc(C(C)(C)C)n[nH]3)cc12", "cytotoxicity at 10 µM [%]": 3.26}
{"Molecule": "CCc1cc2c(N3CCCC(c4ccn[nH]4)C3)ncnc2s1 (configuration not stated)", "cytotoxicity at 10 µM [%]": 15.7}
{"Molecule": "O=C1NCC2(CCCN(c3ncnc4c3CCC4)CC2)O1 (configuration not stated)", "cytotoxicity at 10 µM [%]": -0.718}
{"Molecule": "CN(Cc1cn2c(n1)CN(Cc1ccc(F)cc1)CC2)Cc1ccco1", "cytotoxicity at 10 µM [%]": -77}
{"Molecule": "Cc1cc(NC(=O)NCC(CC(C)C)N2CCOCC2)n(C)n1 (configuration not stated)", "cytotoxicity at 10 µM [%]": -15}
{"Molecule": "CNC(=O)c1cnc2n1CCN(C(=O)Cc1ccccn1)C2", "cytotoxicity at 10 µM [%]": 6.68}
{"Molecule": "FC(F)(F)COCCN1CCOC(Cn2cccn2)C1 (configuration not stated)", "cytotoxicity at 10 µM [%]": -6.1}
{"Molecule": "COCCN1CCC12CCN(C(=O)Cc1cccs1)C2 (configuration not stated)", "cytotoxicity at 10 µM [%]": 7.89}
{"Molecule": "Cc1cc(NC(=O)C(C)Nc2ccn(Cc3ccccn3)n2)on1 (configuration not stated)", "cytotoxicity at 10 µM [%]": -2.06}
{"Molecule": "CCOCCCNC(=O)c1cc(Br)c2c(c1)OCCO2", "cytotoxicity at 10 µM [%]": -2.21}
{"Molecule": "CC(C)N(C)Cc1nnc2n1CCN(CC1CC1)CC2", "cytotoxicity at 10 µM [%]": 0.319}
{"Molecule": "Fc1ccc(Oc2ccc(CNCC3CNc4ccnn4C3)cn2)cc1 (configuration not stated)", "cytotoxicity at 10 µM [%]": -11.6}
{"Molecule": "CCOc1ccc(CN(C)C(=O)COc2ccc(C)nc2)cc1", "cytotoxicity at 10 µM [%]": 22.7}
{"Molecule": "CCCNC(=O)NC(=O)CNC(C)(C)c1ccc2c(c1)OCCO2", "cytotoxicity at 10 µM [%]": -14.7}
{"Molecule": "CCOc1ccccc1CNC(=O)N(CC)C(C)c1cccnc1 (configuration not stated)", "cytotoxicity at 10 µM [%]": -3.64}
{"Molecule": "Cc1nn(C)c(N(C)C)c1CNCc1cccc(Cn2cccn2)c1", "cytotoxicity at 10 µM [%]": 1.88}
{"Molecule": "Cc1cc(C)n(C2CCCN(C(=O)c3csc(C4CC4)n3)C2)n1 (configuration not stated)", "cytotoxicity at 10 µM [%]": -2.51}
